Molecular target: IRAK4 (Homo sapiens, UniProt Q9NWZ3)
Construct: with 0.1 nM IRAK4, 1.6 μM of biotinylated peptide substrate and 10 μM ATP
Sequence (Q9NWZ3 whole entry): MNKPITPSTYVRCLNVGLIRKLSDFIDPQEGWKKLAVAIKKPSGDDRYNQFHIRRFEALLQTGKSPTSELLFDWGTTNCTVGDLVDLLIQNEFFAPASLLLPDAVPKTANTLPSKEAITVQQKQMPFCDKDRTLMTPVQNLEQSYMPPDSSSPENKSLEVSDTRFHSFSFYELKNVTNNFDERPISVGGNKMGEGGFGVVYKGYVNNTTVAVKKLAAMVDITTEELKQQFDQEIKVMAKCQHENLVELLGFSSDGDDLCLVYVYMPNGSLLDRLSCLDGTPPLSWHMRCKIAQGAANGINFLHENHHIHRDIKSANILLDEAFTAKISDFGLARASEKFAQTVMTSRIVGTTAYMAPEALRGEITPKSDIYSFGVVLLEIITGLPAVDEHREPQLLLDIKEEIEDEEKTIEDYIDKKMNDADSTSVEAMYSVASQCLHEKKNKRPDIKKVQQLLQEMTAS
Assay: IRAK4 MSD Biochemical Assay (1 mM ATP, 2 h)
Conditions: room temperature, read-out: IRAK4 MSD Biochemical Assay (1 mM ATP, 2 h) IC50
Can you tell me pIC50 for the items I'm about to list?
One number for each entry, as −log10 of the molar value.

Some compounds with recorded pIC50:
COc1cc2nn(CCC(C)(C)OC)cc2cc1C(=O)Nc1cccc(C(F)F)n1 | 8.26
CC(C)Oc1cc2nn(C3CCOCC3)cc2cc1C(=O)Nc1cccc2c1OCC2.Cl [Example 73, hydrochloride] | 8.74
CC(C)Oc1nc2nn(C3CCOCC3)cc2cc1C(=O)Nc1cccc(C(F)F)n1 | 9.52
COc1cnc2c(NC(=O)c3cc4cn([C@@]56CC[C@@](C)(C5)OC6)nc4cc3OC(C)C)cnn2c1 (single isomer, unassigned) | 9.22

For each of the compounds below, state pIC50.
1. CC(C)Oc1cc2nn(C34CCC(C)(C3)OC4)cc2cc1C(=O)Nc1cnn2cccnc12 (stereo not shown)
2. COc1cnc2c(NC(=O)c3cc4cn([C@]56CC[C@](C)(C5)OC6)nc4cc3OC(C)C)cnn2c1 (single isomer, unassigned)
3. CC(C)Oc1cc2nn(C[C@H]3CCOC3)cc2cc1C(=O)Nc1cccc(C(F)F)n1 (single isomer, unassigned)

[9.30, 8.85, 9.30]

====

Target: IRAK4 (Homo sapiens, UniProt Q9NWZ3)
Construct: with 0.1 nM IRAK4, 1.6 μM of biotinylated peptide substrate and 10 μM ATP
Assay: IRAK4 MSD Biochemical Assay (1 mM ATP, 2 h)
Settings: room temperature, read-out: IRAK4 MSD Biochemical Assay (1 mM ATP, 2 h) IC50
Structures can show the parent of a compound that is named as a salt.
Give measured pIC50 for each item. Keep answers brief.
Numbers only, as −log10 of the molar value.

Answered cases to consult:
CC(C)Oc1cc2nn(C34COC(C)(C3)C4)cc2cc1C(=O)Nc1cnn2cc(F)cnc12 [Example 96, trifluoroacetate] | 8.85
CC(C)Oc1cc2nn(CC3CCOC3)cc2cc1C(=O)Nc1cnn2cccnc12 (centres unmarked) [Example 39] | 8.74
COCCC(C)n1cc2cc(C(=O)Nc3cccc(C(F)F)n3)c(OC(C)C)cc2n1.Cl (centres unmarked) [Example 59, hydrochloride] | 9.00
Cn1cccc(NC(=O)c2cc3cn(C45COC(C)(C4)C5)nc3cc2OC2CCC2)c1=O [Example 83, trifluoroacetate] | 8.85
COc1ncccc1NC(=O)c1cc2cn(C34COC(C)(C3)C4)nc2cc1OC(C)C [Example 90, trifluoroacetate] | 9.22

Okay, here is my list. What is pIC50 for each of these?
1. Cc1cnc2c(NC(=O)c3cc4cn(C56CCC(C)(C5)OC6)nc4cc3OC(C)C)cnn2c1 (centres unmarked) [Example 99, trifluoroacetate]
2. Cc1ccn2ncc(NC(=O)c3cc4cn(C5CCCOC5)nc4nc3OC3CCC3)c2n1 (single isomer, unassigned) [Example 134]
3. CCOc1cc2nn(CCC(C)(C)O)cc2cc1C(=O)Nc1cccc(C(F)F)n1 [Example 31]
4. COc1ncccc1NC(=O)c1cc2cn(CCC(C)(C)O)nc2nc1OC(C)C [Example 40]
5. CC(C)Oc1cc2nn([C@@]34CC[C@@](C)(C3)OC4)cc2cc1C(=O)Nc1cnn2cccnc12 (single isomer, unassigned) [Example 128]
6. CC(C)Oc1nc2nn([C@H]3CCCOC3)cc2cc1C(=O)Nc1cnn2cccnc12 (single isomer, unassigned) [Example 121]
7. CC(C)Oc1cc2nn(C3CCOCC3)cc2cc1C(=O)Nc1ccn(C)n1 [Example 67]

[9.52, 9.00, 9.15, 9.15, 9.30, 9.15, 8.02]

Value sought for every listed molecule: pIC50.
1. CC(C)Oc1cc2nn(C34CCC(C)(CC3)OC4)cc2cc1C(=O)Nc1ccn(C)n1 [Example 103]
2. COc1cccc(NC(=O)c2cc(OC)c3nn(C4CCOCC4)cc3c2)n1.Cl [Example 16, hydrochloride]
3. CC(C)Oc1cc2nn(C34CCC(C)(C3)OC4)cc2cc1C(=O)Nc1cccc(C(F)F)n1 (centres unmarked) [Example 97]
4. COCCCn1cc2cc(C(=O)Nc3cnn4cccnc34)c(OC(C)C)cc2n1 [Example 35]
5. COc1cccc(NC(=O)c2cc3cn(C[C@H]4CCOC4)nc3cc2OC)n1 (single isomer, unassigned) [Example 23]
6. CC(C)Oc1nc2nn(C3CCOC3)cc2cc1C(=O)Nc1cnn2cccnc12 (centres unmarked) [Example 37]

1. 8.72
2. 6.68
3. 9.70
4. 8.30
5. 7.29
6. 8.19

Record pIC50 for all entries; do not skip any.
1. CC(C)Oc1nc2nn(C[C@H]3CCOC3)cc2cc1C(=O)Nc1cccc(C(F)F)n1 (single isomer, unassigned) [Example 106]
2. COc1cccc(NC(=O)c2cc(OC)c3nn(CCC(C)(C)O)cc3c2)n1.Cl [Example 14, hydrochloride]
3. Cc1cnc2c(NC(=O)c3cc4cn(C[C@H]5CCOC5)nc4nc3OC3CCC3)cnn2c1 (single isomer, unassigned) [Example 122]
4. COc1ncccc1NC(=O)c1cc2cn(C3CCOCC3)nc2cc1OC(C)C [Example 69]
5. Cc1cccc(NC(=O)c2cc3cn(C4CCOCC4)nc3cc2OC(C)C)c1F [Example 68]
6. Cn1cccc(NC(=O)c2cc3cn(C[C@H]4CCOC4)nc3nc2OC2CCC2)c1=O (single isomer, unassigned) [Example 112]
7. CC12CCC(n3cc4cc(C(=O)Nc5cnn6cccnc56)c(OC5CCC5)cc4n3)(CO1)C2 (single isomer, unassigned) [Example 138]

9.40
6.61
9.40
9.00
8.70
8.47
9.70
